Assay: in vivo
Set-up: species or system mice
Conditions: male, NOD.Cg-Rag1tm1Mom Il2rgtm1Wjl/SzJ (NRG), mouse, iv, total radioactivity, Biodistribution: Spleen
Where a SMILES comes first, the peptide text is derived from it. Bridges are numbered along the chain shown (N, C = ends). [ ]: non-standard residue; d: D form. The star is where a group is joined. X5 = O=C(O)CN1CCN(CC(=O)O)CCN(CC(=O)N[C@@H](CS(=O)(=O)O)C(=O)N[C@@H](CCCCNC(=O)CCCc2ccc(Cl)cc2)C(=O)*)CCN(CC(=O)O)CC1; 2Nal = N[C@@H](Cc1ccc2ccccc2c1)C(=O)O; Lys(iPr) = CC(C)NCCCC[C@H](N)C(=O)O
Experimental readout: tissue uptake at 3 h
In your response, put the unit directly after the numeric value.

Reported tissue uptake at 3 h ( CC(C)NCCCC[C@H](NC(=O)[C@H]1CCC(=O)N[C@@H](CCCCNC(=O)[C@H](CCCCNC(=O)CCCc2ccc(Cl)cc2)NC(=O)[C@H](CS(=O)(=O)O)NC(=O)CN2CCN(CC(=O)O)CCN(CC(=O)O)CCN(CC(=O)O)CC2)C(=O)N[C@@H](Cc2ccc(O)cc2)C(=O)N[C@@H](CCCCNC(C)C)C(=O)N[C@H](CCCNC(=N)N)C(=O)N[C@@H](Cc2ccc3ccccc3c2)C(=O)N[C@H](C)C(=O)N1)C(N)=O [[^68Ga]Ga-BL34L16, metal not drawn] (K(X5)Y[Lys(iPr)][dR][2Nal][dA][dE][Lys(iPr)]-NH2; lactam N-7) ) = 2.05 %ID/g
